- Test system: Hypoxia-inducible factor 1-alpha (Homo sapiens)
- Assay name: activators of HIF1alpha nuclear accumulation, confirmation, imaging, fluorescence, U2OS GFP-HIF1alpha (AID 434951)
- Condition parameters: U2OS GFP-HIF1alpha nuclear intensity, high-content imaging
Active and inactive are the calls of the source.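 The calls were made as follows: active = a fitted half-maximal concentration EC50 for the rise in nuclear signal no higher than ten times the top dose tested; inconclusive = flat fit with activity between 30% and 70%, or unusable fit; inactive = EC50 beyond ten times the top dose.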
Classes used: active, inactive

# Molecule, Assigned class
measured = [
    ("CCOC(=O)C1=C(C)NC(C)=C(C(=O)OCC)C1C(=O)OCC(=O)N(C)C1CCS(=O)(=O)C1 (centres undefined)", "inactive"),
    ("O=C(CCc1ccccc1)N/N=C/c1cc(Br)ccc1O", "active"),
    ("Cc1ccc(C)c(SCC(=O)OCC(=O)N2CC(C)OC(C)C2)c1 (centres undefined)", "inactive"),
    ("CC1(C)Cc2c(C#N)c(SCCC#N)nc(N3CCOCC3)c2CO1", "inactive"),
    ("O=C1OCc2cc(NC(=O)C34CC5CC(CC(C5)C3)C4)ccc21", "inactive"),
    ("COc1ccc(N/N=C/c2c(C(=O)O)ccc3ccccc23)cc1", "active"),
    ("Cc1ccc(S(=O)(=O)N(C)CC(=O)NCCCn2ccnc2)cc1", "inactive"),
    ("O=C(CN1CCCCC1)N1CCCc2ccccc21", "inactive"),
    ("CC1SC(=NC(=O)c2ccncc2)NC1=O (centres undefined)", "inactive"),
    ("COc1cc(C(=O)Oc2ccccc2/C=N/NC(=O)c2ccc(Cl)cc2)cc(OC)c1OC", "active"),
    ("Oc1c(C(Nc2nc3ccccc3s2)c2ccco2)ccc2cccnc12 (centres undefined)", "active"),
    ("Cc1nnc(SCc2cccc(Cl)c2)n(N)c1=O", "inactive"),
    ("O=C(CSc1nnc(-c2ccccc2Cl)o1)N1CCOCC1", "inactive"),
    ("CCOc1ccc(NC(=O)C2CCN(S(=O)(=O)c3ccc4c(c3)N(C(C)=O)CCO4)CC2)cc1", "inactive"),
    ("CCc1nc(SCC(=O)c2ccccc2)c2ccccc2n1", "inactive"),
    ("O=C(Nc1nc2ccc([N+](=O)[O-])cc2s1)c1c(F)cccc1F", "inactive"),
    ("CC(Sc1nnc(COc2ccc([N+](=O)[O-])cc2)n1C)C(=O)O (centres undefined)", "inactive"),
    ("Cc1ccc(-n2cc(CN3CCC(CO)(Cc4ccccc4)CC3)cn2)cc1", "inactive"),
    ("CC(C)c1nc(CNC(=O)CCc2nnc(-c3ccsc3)o2)cs1", "inactive"),
    ("COc1ccc(NC(=O)c2cccc(NC(=O)c3ccco3)c2)c(OC)c1", "inactive"),
    ("Cc1ccc(Cl)cc1N1CCN(CC(O)COCc2ccco2)CC1 (centres undefined)", "inactive"),
    ("O=[N+]([O-])c1cccc(/C=C/c2ccc3cccc(O)c3n2)c1", "active"),
    ("Cc1cc(Cl)n2c(nc3cc(F)c(F)cc32)c1C#N", "inactive"),
    ("Cc1cc(NC(=O)CCCS(=O)(=O)c2nc(-c3cccs3)cc(C(F)(F)F)n2)no1", "inactive"),
    ("O=c1oc2cc([N+](=O)[O-])ccc2nc1/C=C(\\O)c1cccc(Br)c1", "inactive"),
    ("COc1ccccc1C(c1nnnn1CC1CCCO1)N1CCC(C(N)=O)CC1 (centres undefined)", "inactive"),
    ("Cc1cc(Br)cc(/C=N/NC(=O)c2ccc3c(c2)OCO3)c1O", "active"),
    ("CC(=O)Nc1ccc(S(=O)(=O)Nc2ccc(S(=O)(=O)Nc3nccs3)cc2)cc1", "inactive"),
    ("CCCCNC(=O)CN1C(=O)COc2ccc(S(=O)(=O)N3CCCCCC3)cc21", "inactive"),
    ("CCCCCCC1CCC(c2nc(-c3ccncc3)no2)CC1 (centres undefined)", "inactive"),
    ("CN(C)c1ccc(CNC(=O)CCS(=O)(=O)c2ccc3c(c2)oc(=O)n3C)cc1", "inactive"),
    ("COC(=O)C1=C(C)N(Cc2ccc(OC)cc2)C(=O)C1", "inactive"),
    ("CCCC(=O)NC(c1ccc(N(C)C)cc1)c1ccc2cccnc2c1O (centres undefined)", "active"),
    ("O=C(CCc1ccccc1)Nc1ccnn1C1CCN(C/C=C/c2ccccc2)CC1", "inactive"),
    ("CCCC(C)NC(=O)CN1C(=O)NC2(CCc3ccccc32)C1=O (centres undefined)", "inactive"),
    ("C/C(=C\\C(=O)OCC(=O)NCc1ccccc1)C(=O)OCC(=O)NCc1ccccc1", "inactive"),
    ("Cc1ccccc1OCC(=O)Nc1ccc(N2CCN(C)CC2)c(Cl)c1", "inactive"),
    ("CCC(=O)c1ccc(N2CCN(C(=O)c3ccc(Br)cc3)CC2)c(F)c1", "inactive"),
    ("CCOC(=O)c1sc(N(Cc2ccccc2)C(=O)COC(=O)c2ccc(O)cc2)nc1C", "active"),
    ("Cn1ncc(Cl)c1C(=O)Nc1nc2ccc(Cl)cc2s1", "inactive"),
    ("COc1ccc(CCNC(=O)CSc2nc(-c3ccc(OC)c(OC)c3)ccc2C#N)cc1", "inactive"),
    ("O=C(N/N=C/c1cc(Br)ccc1O)C(=O)Nc1ccccc1OC(F)(F)C(F)F", "active"),
    ("O=C(N/N=C/c1cc(Br)cc(Cl)c1O)c1ccc2c(c1)OCO2", "inactive"),
    ("O=C(NNC(=O)C(O)(c1ccccc1)c1ccccc1)C1CC1", "inactive"),
]
